# Target Of Assay: T1, recombinant hMCAM-His (human, UniProt P43121 24-559)
# T1 construct: not shown: His tag
# T1 chain: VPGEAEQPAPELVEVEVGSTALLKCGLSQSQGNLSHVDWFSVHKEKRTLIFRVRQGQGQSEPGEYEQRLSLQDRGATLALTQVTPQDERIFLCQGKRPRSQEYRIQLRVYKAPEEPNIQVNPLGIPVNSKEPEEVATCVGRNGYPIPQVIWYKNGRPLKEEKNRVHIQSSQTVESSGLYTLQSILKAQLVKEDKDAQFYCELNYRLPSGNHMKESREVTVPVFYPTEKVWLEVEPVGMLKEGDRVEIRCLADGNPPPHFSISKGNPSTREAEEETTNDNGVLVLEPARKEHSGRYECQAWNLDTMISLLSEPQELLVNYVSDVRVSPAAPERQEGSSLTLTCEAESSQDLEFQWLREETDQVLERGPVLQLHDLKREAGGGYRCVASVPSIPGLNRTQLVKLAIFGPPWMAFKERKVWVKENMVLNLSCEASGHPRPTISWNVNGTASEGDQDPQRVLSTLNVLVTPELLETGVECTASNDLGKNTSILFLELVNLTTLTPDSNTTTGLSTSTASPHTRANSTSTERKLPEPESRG
# Measurement Protocol: competitive ELISA on hMCAM-His, competitor biotinylated rodent or chimeric 1749; Expt. #1; vs rodent 1749
Measurement Kind: fold over rodent (competitive ELISA) (fold)

Binder	Unit	Reported Value
chimeric 1749 (antibody, V domains shown) VH: DVKLVESGGDLVKPGGSLKLSCAASGFTFSSYIMSWVRQTPEKRLEWVATISSGGSSTYYPDSVKGRFTISRDNAKNTLYLQMSSLKSEDTAMYYCTRDDDYDVKVFAYWGQGTLVTVSA VL: DIVMSQSPSSLAVSAGEKVTMNCKSSRSLLNSRIRKNYLAWYQQKPGQSPKLLIYWASTRESGVPDRFTGSGSGTDFTLTISSVQAEDLAVYYCKQSYNLLTFGAGTKLELK	fold	0.81
